Sourced from paper PMC8119466

Consider the following molecules and their measured % Phosphatase Activity (compared to DMSO) PRL-3 readings.
# TARGET_ENTITY: recombinant PRL-3 (Homo sapiens)
# Construct: 6xHis (N, cleaved yes); made in house; host or cells: E. coli One Shot BL21 Star
# Sequence (O75365 whole entry): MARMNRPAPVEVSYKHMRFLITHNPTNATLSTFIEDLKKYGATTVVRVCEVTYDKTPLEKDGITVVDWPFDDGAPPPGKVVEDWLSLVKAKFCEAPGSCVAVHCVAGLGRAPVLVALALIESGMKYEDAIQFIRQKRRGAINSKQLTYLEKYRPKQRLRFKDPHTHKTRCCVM
# EXPERIMENT_DESCRIPTION: In vitro phosphatase assay (DiFMUP hydrolysis), PRL-3; also: test concentration or dose not given here
# Type: biochemical
# ASSAY_SETUP: FDA-approved drug screen; compared to DMSO
ASSAY_ENDPOINT: % Phosphatase Activity (compared to DMSO) PRL-3 (%)

molecule="Cc1nc2n(c(=O)c1CCN1CCC(c3noc4cc(F)ccc34)CC1)CCCC2O (stereo not drawn) [Paliperidone]" recorded_result=75
molecule="CCNC1(C(N)=O)CCN(c2ncnc3c2nc(-c2ccccc2Cl)n3-c2ccc(Cl)cc2)CC1.Cl [Otenabant (CP-945598) HCl]" recorded_result=97
molecule="COc1cc2c(cc1OC)CN(CCc1ccc(NC(=O)c3cccc4c(=O)c5cccc(OC)c5[nH]c34)cc1)CC2 [Elacridar (GF120918)]" recorded_result=100

====

Consider the following compounds and their measured % Phosphatase Activity (compared to DMSO) PRL-2 readings.
# TARGET_ENTITY: recombinant PRL-2 (Homo sapiens, UniProt Q12974)
# Construct: 6xHis (N, cleaved yes); made in house; host or cells: E. coli One Shot BL21 Star
# Sequence (Q12974 whole entry): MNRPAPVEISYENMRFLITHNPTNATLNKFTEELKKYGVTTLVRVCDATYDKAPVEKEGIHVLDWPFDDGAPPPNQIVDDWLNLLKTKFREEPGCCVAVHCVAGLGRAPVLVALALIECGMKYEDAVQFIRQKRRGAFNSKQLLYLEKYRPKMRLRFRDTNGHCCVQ
# EXPERIMENT_DESCRIPTION: In vitro phosphatase assay (DiFMUP hydrolysis), PRL-2;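 also: PRL-2 activity read as DiFMUP hydrolysis after 20 min at room temperature with drug, enzyme first pre-reduced at 4 °C for 20 min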
# Format: biochemical
# ASSAY_SETUP: FDA-approved drug screen; activity compared to DMSO
Counter-ions that a name gives are not always drawn.
ASSAY_ENDPOINT: % Phosphatase Activity (compared to DMSO) PRL-2 (%)

compound=Cc1c(Cl)cccc1Nc1ccccc1C(=O)O target_entity="recombinant PRL-2 (Homo sapiens, UniProt Q12974)" recorded_result=86
compound="O=C(CCCCCCC(=O)Nc1ccccc1)NO [Vorinostat (SAHA, MK0683)]" target_entity="recombinant PRL-2 (Homo sapiens, UniProt Q12974)" recorded_result=89
compound="NS(=O)(=O)Cc1noc2ccccc12 [Zonisamide]" target_entity="recombinant PRL-2 (Homo sapiens, UniProt Q12974)" recorded_result=89
compound="CCCc1nc(C)c2c(=O)[nH]c(-c3cc(S(=O)(=O)N4CCN(CC)CC4)ccc3OCC)nn12.Cl.O.O.O [Vardenafil HCl Trihydrate]" target_entity="recombinant PRL-2 (Homo sapiens, UniProt Q12974)" recorded_result=98
compound="CCC1=C[C@@H]2CN(C1)Cc1c([nH]c3ccccc13)[C@@](C(=O)OC)(c1cc3c(cc1OC)N(C)[C@H]1[C@@](O)(C(=O)OC)[C@H](OC(C)=O)[C@]4(CC)C=CCN5CC[C@]31[C@@H]54)C2 [Vinorelbine Tartrate]" target_entity="recombinant PRL-2 (Homo sapiens, UniProt Q12974)" recorded_result=98
compound="CCCCNc1ccc(C(=O)OCCN(C)C)cc1 [Tetracaine HCl]" target_entity="recombinant PRL-2 (Homo sapiens, UniProt Q12974)" recorded_result=116
compound=CCOC(=O)C1=C[C@]2(CC)CCCN3CCc4c(n1c1ccccc41)[C@@H]32 target_entity="recombinant PRL-2 (Homo sapiens, UniProt Q12974)" recorded_result=114
compound=CO[C@H]1C[C@@H]2CC[C@@H](C)[C@@](O)(O2)C(=O)C(=O)N2CCCC[C@H]2C(=O)O[C@H]([C@H](C)C[C@@H]2CC[C@@H](OC(=O)C(C)(CO)CO)[C@H](OC)C2)CC(=O)[C@H](C)/C=C(\C)[C@@H](O)[C@@H](OC)C(=O)[C@H](C)C[C@H](C)/C=C/C=C/C=C/1C target_entity="recombinant PRL-2 (Homo sapiens, UniProt Q12974)" recorded_result=111
